- ASSAYED_TARGET: human PCSK9 / human LDLR EGFa domain (Homo sapiens, UniProt Q8NBP7)
- PROTOCOL_DESCRIPTION: TR-FRET assay of inhibition of the PCSK9-LDLR protein-protein interaction
- Type: binding
- CONDITION_SUMMARY: 20 nM human PCSK9, 20 nM human LDLR EGFa domain, 2 hours room temperature
Numbered stars: 1 amine (or outer) side, 2 acyl side, 3 side chain; on linkers, the order of the positions; unused ones are H or OH. Bridge positions count the residues as written; N and C are the ends. Square brackets hold non-standard residues; d marks the D form. Peptide text beside a SMILES is read from it. ξ: configuration not given here. X2 = NC(=O)[C@H](CSCc1cccc(C[*:1])c1)CC(=O)[C@@H]1CCCN1[*:2]; Phe(3,4,5-F3) = N[C@@H](Cc1cc(F)c(F)c(F)c1)C(=O)O; Trp(5-F) = N[C@@H](Cc1c[nH]c2ccc(F)cc12)C(=O)O; X8 = O=C(CCCCCSCc1cccc(CSCCN[*:1])c1)[*:2]; X1 = O=C(CCSCc1cccc(CSCCN[*:1])c1)[*:2]; mXylylene = c1cc(C[*:1])cc(C[*:2])c1; 2Pal = N[C@@H](Cc1ccccn1)C(=O)O; Tic = O=C(O)[C@@H]1Cc2ccccc2CN1; Aze = O=C(O)[C@@H]1CCN1; Aib = CC(C)(N)C(=O)O; ξP = O=C(O)C1CCCN1; Mpa = O=C(O)CCS
METRIC_NAME: IC50

C[C@@H]1NC(=O)[C@@H]2CCCN2C(=O)[C@H](Cc2c[nH]c3ccc(F)cc23)NC(=O)[C@H](Cc2c[nH]c3ccc(F)cc23)NC(=O)[C@@H](C)NC(=O)C(C)(C)NC(=O)CCSCc2cccc(c2)CSCCNC(=O)[C@@H]2CCCN2C(=O)[C@H](Cc2ccc(O)cc2)NC1=O [Compound 094] (cyclo(AYP[X1][Aib][dA][Trp(5-F)][Trp(5-F)]P)) : 100 to 1000 nM
C[C@@H]1NC(=O)[C@@H]2CCCN2C(=O)[C@H](Cc2ccccn2)NC(=O)[C@H](Cc2c[nH]c3ccc(F)cc23)NC(=O)CNC(=O)[C@H](CCCCN)NC(=O)CCSCc2cccc(c2)CSC[C@@H](C(N)=O)NC(=O)[C@@H]2CCCN2C(=O)[C@H](Cc2ccc(O)cc2)NC1=O [Compound 019] ([Mpa]KG[Trp(5-F)][2Pal]PAYPC-NH2; linker 1-10 via mXylylene) : 21000 to 50000 nM
C[C@@H]1NC(=O)[C@@H]2CCCN2C(=O)[C@H](Cc2cc(F)c(F)c(F)c2)NC(=O)[C@H](Cc2c[nH]c3ccc(F)cc23)NC(=O)CNC(=O)[C@H](CCCCN)NC(=O)CCSCc2cccc(c2)CSC[C@@H](C(N)=O)NC(=O)[C@@H]2CCCN2C(=O)[C@H](Cc2ccc(O)cc2)NC1=O [Compound 014] ([Mpa]KG[Trp(5-F)][Phe(3,4,5-F3)]PAYPC-NH2; linker 1-10 via mXylylene) : 1 to 100 nM
C[C@@H]1NC(=O)CCSCc2cccc(c2)CSCCNC(=O)[C@@H]2CCCN2C(=O)[C@H](Cc2ccc(O)cc2)NC(=O)[C@H](C)NC(=O)[C@@H]2Cc3ccccc3CN2C(=O)[C@H](Cc2c[nH]c3ccc(F)cc23)NC(=O)[C@H](Cc2c[nH]c3ccc(F)cc23)NC(=O)[C@@H](C)NC1=O [Compound 091] (cyclo(AYP[X1]A[dA][Trp(5-F)][Trp(5-F)][Tic])) : 100 to 1000 nM
C[C@@H]1NC(=O)[C@@H]2CCCN2C(=O)[C@H](Cc2c[nH]c3ccc(F)cc23)NC(=O)[C@H](Cc2c[nH]c3ccc(F)cc23)NC(=O)CNC(=O)CCCCCSCc2cccc(c2)CSCCNC(=O)C2CCCN2C(=O)[C@H](Cc2ccc(O)cc2)NC1=O (stereo partly drawn) [Compound 098] (cyclo(AY[ξP][X8]G[Trp(5-F)][Trp(5-F)]P)) : 100 to 1000 nM
C[C@@H]1NC(=O)[C@@H]2CCN2C(=O)[C@H](Cc2c[nH]c3ccc(F)cc23)NC(=O)[C@H](Cc2c[nH]c3ccc(F)cc23)NC(=O)[C@@H](C)NC(=O)[C@H](CCCCN)NC(=O)CCSCc2cccc(c2)CSC[C@@H](C(N)=O)CC(=O)[C@@H]2CCCN2C(=O)[C@H](Cc2ccc(O)cc2)NC1=O [Compound 034] ([Mpa]K[dA][Trp(5-F)][Trp(5-F)][Aze]AY; linker 1-C via X2) : 100 to 1000 nM

* * *

- ASSAYED_TARGET: PCSK9 (Homo sapiens, UniProt Q8NBP7)
- Construct: biotin (biotinylated)
- Sequence (Q8NBP7 153-692): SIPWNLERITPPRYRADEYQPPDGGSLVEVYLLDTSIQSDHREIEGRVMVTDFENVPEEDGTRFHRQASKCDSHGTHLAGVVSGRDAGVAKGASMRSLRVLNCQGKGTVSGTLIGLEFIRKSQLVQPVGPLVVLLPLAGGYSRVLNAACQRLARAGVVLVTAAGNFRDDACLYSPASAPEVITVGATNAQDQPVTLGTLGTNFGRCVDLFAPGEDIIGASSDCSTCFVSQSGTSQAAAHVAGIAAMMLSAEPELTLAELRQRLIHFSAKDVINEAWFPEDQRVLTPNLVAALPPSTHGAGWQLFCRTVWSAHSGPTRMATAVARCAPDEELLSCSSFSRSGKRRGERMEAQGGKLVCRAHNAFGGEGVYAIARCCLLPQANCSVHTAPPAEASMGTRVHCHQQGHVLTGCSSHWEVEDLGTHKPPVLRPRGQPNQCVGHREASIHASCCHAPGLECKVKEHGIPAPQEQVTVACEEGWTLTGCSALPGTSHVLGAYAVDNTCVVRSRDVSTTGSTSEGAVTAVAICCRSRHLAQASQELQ
- PROTOCOL_DESCRIPTION: PCSK9 Alexa FRET Standard assay (displacement of AlexaFluor647 tagged cyclic peptide Reagent A)
- Assay type: binding
- CONDITION_SUMMARY: 0.5 nM PCSK9, 20 nM AF cyclic peptide Reagent A
pIC50: −log10 of the molar value. Numbered stars: 1 amine (or outer) side, 2 acyl side, 3 side chain; on linkers, the order of the positions; unused ones are H or OH. Bridge positions count the residues as written; N and C are the ends. Square brackets hold non-standard residues; d marks the D form. Peptide text beside a SMILES is read from it. X6 = O=C([C@H](Cc1cccc(OCC=[*:3])c1)N[*:1])[*:2]; Phe(4-COOH) = N[C@@H](Cc1ccc(C(=O)O)cc1)C(=O)O; Phe(4-tBu) = CC(C)(C)c1ccc(C[C@H](N)C(=O)O)cc1; Trp(5-F) = N[C@@H](Cc1c[nH]c2ccc(F)cc12)C(=O)O; Phe(3-CN) = N#Cc1cccc(C[C@H](N)C(=O)O)c1; X1 = O=C(CCSCc1cccc(CSCCN[*:1])c1)[*:2]; 1Nal = N[C@@H](Cc1cccc2ccccc12)C(=O)O; mXylylene = c1cc(C[*:1])cc(C[*:2])c1; NMeY = CN[C@@H](Cc1ccc(O)cc1)C(=O)O; X5 = O=C(CN(CCCCC=[*:3])[*:1])[*:2]; X4 = O=C(CN(CCCC=[*:3])[*:1])[*:2]; NMeF = CN[C@@H](Cc1ccccc1)C(=O)O; X7 = O=C(CN(CC=[*:3])[*:1])[*:2]; αMeP = C[C@@]1(C(=O)O)CCCN1; Ahx = NCCCCCC(=O)O; Mpa = O=C(O)CCS
# pIC50 listing for each entry below
METRIC_NAME: pIC50

C[C@@H]1NC(=O)[C@@H]2CCCN2C(=O)[C@H](Cc2c[nH]c3ccc(F)cc23)NC(=O)[C@H](Cc2c[nH]c3ccc(F)cc23)NC(=O)[C@@H](C)NC(=O)[C@@H]2CCCN2C(=O)CCSCc2cccc(c2)CSCCNC(=O)[C@@H]2CCCN2C(=O)[C@H](Cc2ccc(O)cc2)NC1=O [Compound 050] (cyclo(AYP[X1]P[dA][Trp(5-F)][Trp(5-F)]P)) : 4.92 to 6.00
C[C@@H]1NC(=O)[C@@H]2CCCN2C(=O)[C@H](Cc2ccc(C(C)(C)C)cc2)NC(=O)[C@H](Cc2c[nH]c3ccc(F)cc23)NC(=O)CNC(=O)[C@H](CCCCN)NC(=O)CCSCc2cccc(c2)CSC[C@@H](C(N)=O)NC(=O)[C@@H]2CCCN2C(=O)[C@H](Cc2ccc(O)cc2)NC1=O [Compound 016] ([Mpa]KG[Trp(5-F)][Phe(4-tBu)]PAYPC-NH2; linker 1-10 via mXylylene) : 7.00 to 9.00
COc1ccc(C[C@@H]2NC(=O)[C@H](C)NC(=O)CN3C/C=C\COc4cccc(c4)C[C@H](NC(=O)CNC(=O)CCCCCNC(=O)c4ccc(cc4)C[C@@H](C(N)=O)NC(=O)[C@]4(C)CCCN4C2=O)C(=O)N[C@@H](Cc2c[nH]c4ccc(F)cc24)C3=O)cc1 [Compound 121] ([Ahx]G[X6][Trp(5-F)][X7]AY(Me)[αMeP][Phe(4-COOH)]-NH2; staple (Z) 3-5; lactam N-9) : 7.00 to 9.00
COc1ccc(C[C@@H]2NC(=O)[C@H](C)NC(=O)CN3CCCC/C=C\CCCN(CC(=O)N[C@@H](Cc4c[nH]c5ccc(F)cc45)C3=O)C(=O)CNC(=O)CCCCCNC(=O)c3ccc(cc3)C[C@@H](C(N)=O)NC(=O)[C@]3(C)CCCN3C2=O)cc1 [Compound 122] ([Ahx]G[X4][Trp(5-F)][X5]AY(Me)[αMeP][Phe(4-COOH)]-NH2; staple (Z) 3-5; lactam N-9) : 6.00 to 7.00
COc1ccc(C[C@@H]2NC(=O)[C@H](C)NC(=O)[C@@H]3CCCN3C(=O)[C@@H]3Cc4cn(c5ccc(F)cc45)Cc4cn(nn4)-c4c(cccc4CSCCC(=O)N[C@H](C)C(=O)NCC(=O)N[C@@H](Cc4c[nH]c5ccc(F)cc45)C(=O)N3)CSCCNC(=O)[C@]3(C)CCCN3C2=O)cc1 : 7.00 to 9.00
C[C@@H]1NC(=O)[C@@H]2CCCN2C(=O)[C@H](Cc2cccc3ccccc23)NC(=O)[C@H](Cc2c[nH]c3ccc(F)cc23)NC(=O)CNC(=O)[C@H](CCCCN)NC(=O)CCSCc2cccc(c2)CSC[C@@H](C(N)=O)NC(=O)[C@@H]2CCCN2C(=O)[C@H](Cc2ccc(O)cc2)NC1=O [Compound 012] ([Mpa]KG[Trp(5-F)][1Nal]PAYPC-NH2; linker 1-10 via mXylylene) : 7.00 to 9.00
COc1ccc(C[C@@H]2NC(=O)[C@H]([C@@H](C)O)NC(=O)CN3CCCCOc4cccc(c4)C[C@H](NC(=O)[C@@H](C)NC(=O)[C@H](C)NC(=O)CCSCc4cccc(c4)CSCCNC(=O)[C@]4(C)CCCN4C2=O)C(=O)N[C@H](Cc2c[nH]c4ccc(F)cc24)C3=O)cc1 : 7.00 to 9.00
COc1ccc(C[C@@H]2NC(=O)[C@H]([C@@H](C)O)NC(=O)[C@@H]3CCCN3C(=O)[C@H]3Cc4cn(c5ccc(F)cc45)Cc4cn(nn4)-c4cc(cc(c4)CSCCC(=O)N[C@@H](C)C(=O)N[C@H](C)C(=O)N[C@@H](Cc4c[nH]c5ccc(F)cc45)C(=O)N3)CSCCNC(=O)[C@]3(C)CCCN3C2=O)cc1 : 4.92 to 6.00
COc1ccc(C[C@H]2C(=O)N3CCC[C@H]3C(=O)NCCSCc3cccc(c3)CSCCC(=O)N3CCC[C@H]3C(=O)N[C@H](C)C(=O)N[C@@H](Cc3c[nH]c4ccc(F)cc34)C(=O)N[C@@H](Cc3c[nH]c4ccc(F)cc34)C(=O)N3CCC[C@H]3C(=O)N[C@@H](C)C(=O)N2C)cc1 [Compound 053] (cyclo(A[NMeY](Me)P[X1]P[dA][Trp(5-F)][Trp(5-F)]P)) : 4.92 to 6.00
C[C@@H]1NC(=O)CCSCc2cccc(c2)CSCCNC(=O)[C@@H]2CCCN2C(=O)[C@H](Cc2ccccc2)N(C)C(=O)[C@H](C)NC(=O)[C@@H]2CCCN2C(=O)[C@H](Cc2c[nH]c3ccc(F)cc23)NC(=O)[C@H](Cc2c[nH]c3ccc(F)cc23)NC(=O)[C@@H](C)NC1=O [Compound 063] (cyclo(A[NMeF]P[X1]A[dA][Trp(5-F)][Trp(5-F)]P)) : 7.00 to 9.00
C[C@@H]1NC(=O)[C@@H]2CCCN2C(=O)[C@H](Cc2cccc(C#N)c2)NC(=O)[C@H](Cc2c[nH]c3ccc(F)cc23)NC(=O)CNC(=O)[C@H](CCCCN)NC(=O)CCSCc2cccc(c2)CSC[C@@H](C(N)=O)NC(=O)[C@@H]2CCCN2C(=O)[C@H](Cc2ccc(O)cc2)NC1=O [Compound 015] ([Mpa]KG[Trp(5-F)][Phe(3-CN)]PAYPC-NH2; linker 1-10 via mXylylene) : 7.00 to 9.00
COc1ccc(C[C@@H]2NC(=O)[C@H](C)NC(=O)[C@@H]3CCC(=O)NCc4cccc(c4)C[C@H](NC(=O)CNC(C)=O)C(=O)N[C@@H](Cc4cn(c5ccc(F)cc45)Cc4cn(nn4)CC[C@@H](C(N)=O)NC(=O)[C@]4(C)CCCN4C2=O)C(=O)N3)cc1 : 7.00 to 9.00
